molecular target: mglur-8 (Rattus norvegicus, UniProt P70579); experiment: Cell-based mGluR-8 activity assay, CHO cells stimulated with 1 µM L-AP4, concentration response
Sequence (P70579 34-908): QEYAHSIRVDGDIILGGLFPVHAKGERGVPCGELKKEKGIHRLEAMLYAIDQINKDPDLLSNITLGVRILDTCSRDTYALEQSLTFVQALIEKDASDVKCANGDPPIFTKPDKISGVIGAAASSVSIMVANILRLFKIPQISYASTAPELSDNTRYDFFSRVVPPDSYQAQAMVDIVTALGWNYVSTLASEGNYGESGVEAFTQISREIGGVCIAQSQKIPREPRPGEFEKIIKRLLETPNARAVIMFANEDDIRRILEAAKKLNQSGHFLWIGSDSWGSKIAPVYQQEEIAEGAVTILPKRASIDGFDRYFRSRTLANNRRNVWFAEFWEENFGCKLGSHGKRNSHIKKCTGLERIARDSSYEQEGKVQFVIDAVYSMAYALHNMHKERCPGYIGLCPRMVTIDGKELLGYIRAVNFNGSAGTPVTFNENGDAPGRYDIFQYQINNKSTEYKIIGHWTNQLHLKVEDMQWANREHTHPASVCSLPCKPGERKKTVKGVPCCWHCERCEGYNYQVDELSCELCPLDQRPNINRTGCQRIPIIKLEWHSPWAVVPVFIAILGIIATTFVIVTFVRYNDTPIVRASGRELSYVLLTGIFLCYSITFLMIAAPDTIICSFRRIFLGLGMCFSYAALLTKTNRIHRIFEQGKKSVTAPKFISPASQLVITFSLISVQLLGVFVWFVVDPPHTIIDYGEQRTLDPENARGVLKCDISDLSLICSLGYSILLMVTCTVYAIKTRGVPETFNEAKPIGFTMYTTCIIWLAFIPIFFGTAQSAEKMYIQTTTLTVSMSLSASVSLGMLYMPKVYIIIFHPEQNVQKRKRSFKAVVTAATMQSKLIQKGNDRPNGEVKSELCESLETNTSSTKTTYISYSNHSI
quantity-kind: pKi
// pKi is dimensionless: -log10 of concentration (M)

Exercise: Field: pKi (mglur-8 (Rattus norvegicus, UniProt P70579)). Entry: `Cc1cc(C)c2c(N)c(C(=O)Nc3ccccn3)sc2n1`
Solution: 5.01
